# tested_system: Peroxisome proliferator-activated receptor alpha (Homo sapiens, UniProt Q07869)
# Sequence (Q07869 whole entry, the tested form may be a part): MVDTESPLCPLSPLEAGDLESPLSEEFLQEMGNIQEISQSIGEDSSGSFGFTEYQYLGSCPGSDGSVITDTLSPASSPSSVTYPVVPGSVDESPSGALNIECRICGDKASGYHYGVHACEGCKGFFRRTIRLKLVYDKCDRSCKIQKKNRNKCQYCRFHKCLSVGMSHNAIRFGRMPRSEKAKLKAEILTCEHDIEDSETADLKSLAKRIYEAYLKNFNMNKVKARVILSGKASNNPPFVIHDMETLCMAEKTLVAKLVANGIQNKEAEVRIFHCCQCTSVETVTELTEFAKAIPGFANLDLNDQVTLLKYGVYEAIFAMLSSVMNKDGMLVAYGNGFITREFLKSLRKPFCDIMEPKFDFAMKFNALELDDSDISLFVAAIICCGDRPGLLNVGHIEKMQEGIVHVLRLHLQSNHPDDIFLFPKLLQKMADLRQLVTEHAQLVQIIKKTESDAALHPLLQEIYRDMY
# method_notes: Agonist activity at human PPARalpha ligand binding domain expressed in human HepG2 cells co-transfected with Gal4 by luciferase reporter gene assay
observed_property: pEC50
Worth noting: pEC50 values are minus log10 of concentrations stated in mol/L.

Please review the following examples before continuing.
compound	pEC50
O=C(O)[C@H](Cc1ccc(-c2ccccc2)cc1)Oc1ccc(Cl)cc1	7.31
O=C(O)[C@@H](Cc1ccc(Oc2ccccc2)cc1)Oc1ccc(Cl)cc1	6.15
CCCCCCc1ccc(CC(Oc2ccc(Cl)cc2)C(=O)O)cc1 (stereo unspecified)	6.35
O=C(O)[C@H](Cc1ccc(-c2cccs2)cc1)Oc1ccc(Cl)cc1	7.19
O=C(O)C(Cc1ccccc1Cl)Oc1ccc(Cl)cc1 (racemic)	5.66

# evaluate next
Ask: Look up pEC50 for this compound: Cc1ccc(CC(Oc2ccc(Cl)cc2)C(=O)O)cc1 (racemic)
Reply: 5.55
